Target: TryP (TbTryP) (Trypanosoma brucei)
Sequence (Q71RY2 1-199): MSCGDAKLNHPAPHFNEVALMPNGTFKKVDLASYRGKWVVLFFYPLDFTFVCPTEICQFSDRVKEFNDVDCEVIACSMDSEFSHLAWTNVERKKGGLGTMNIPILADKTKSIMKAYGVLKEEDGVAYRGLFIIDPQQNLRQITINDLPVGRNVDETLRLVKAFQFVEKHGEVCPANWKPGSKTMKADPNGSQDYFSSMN
measurement name: IC50
Answer with the value and then the unit.

Given the compound `O=C1C=CC(O)(c2nc3ccccc3s2)C=C1` , write its reported IC50. 14.1 µM
